# Assay details: Clearance in C57BL/6 mouse at 1 mg/kg, iv measured for 0.5 to […] htr by LC-MS/MS analysis
# Format: ADME, organism-based
# Applied conditions: in vivo, time 0.5-12 hrs
Property label: clearance (mL/min/kg)
Numbers only, in mL/min/kg.

Record excerpt, results attached:
CC[C@@H]1C(=O)N(C)c2cnc(Nc3cc(N4CCN(C)CC4)ccc3OCCCO)nc2N1C1CCCC1 ... 73
CC[C@@H]1C(=O)N(C)c2cnc(Nc3ccc(C(=O)NC4CCN(C)CC4)cc3OC)nc2N1C1CCCC1 ... 143

// query Read the entry CC[C@@H]1C(=O)N(C)c2cnc(Nc3cc(N4CCN(C)CC4)cc(Cl)c3OCCCO)nc2N1C1CCCC1 and write its reported clearance.
// result 91

* * *

# Assay details: AUC (0 to t) in C57BL/6 mouse at 10 mg/kg, po measured for 0.5 to […] htr by LC-MS/MS analysis
# Type: ADME, organism-based
# Applied conditions: in vivo, time 0.5-12 hrs
Property label: AUC(0-t) (ng·h/mL)
Answers are plain numbers, in ng·h/mL.

Would you please look over these solved cases?
CC[C@@H]1C(=O)N(C)c2cnc(Nc3ccc(C(=O)NC4CCN(C)CC4)cc3OC)nc2N1C1CCCC1 ... 89
CC[C@@H]1C(=O)N(C)c2cnc(Nc3cc(N4CCN(C)CC4)cc(Cl)c3OCCCO)nc2N1C1CCCC1 ... 820

Moving on to the next molecule.
// query Identify measured AUC(0-t) corresponding to CC[C@@H]1C(=O)N(C)c2cnc(Nc3cc(N4CCN(C)CC4)ccc3OCCCO)nc2N1C1CCCC1
// result 449

* * *

The listing below reports IC50 for molecules tested on Serine/threonine-protein kinase PLK2 (Homo sapiens, UniProt Q9NYY3).
Sequence (Q9NYY3 whole entry): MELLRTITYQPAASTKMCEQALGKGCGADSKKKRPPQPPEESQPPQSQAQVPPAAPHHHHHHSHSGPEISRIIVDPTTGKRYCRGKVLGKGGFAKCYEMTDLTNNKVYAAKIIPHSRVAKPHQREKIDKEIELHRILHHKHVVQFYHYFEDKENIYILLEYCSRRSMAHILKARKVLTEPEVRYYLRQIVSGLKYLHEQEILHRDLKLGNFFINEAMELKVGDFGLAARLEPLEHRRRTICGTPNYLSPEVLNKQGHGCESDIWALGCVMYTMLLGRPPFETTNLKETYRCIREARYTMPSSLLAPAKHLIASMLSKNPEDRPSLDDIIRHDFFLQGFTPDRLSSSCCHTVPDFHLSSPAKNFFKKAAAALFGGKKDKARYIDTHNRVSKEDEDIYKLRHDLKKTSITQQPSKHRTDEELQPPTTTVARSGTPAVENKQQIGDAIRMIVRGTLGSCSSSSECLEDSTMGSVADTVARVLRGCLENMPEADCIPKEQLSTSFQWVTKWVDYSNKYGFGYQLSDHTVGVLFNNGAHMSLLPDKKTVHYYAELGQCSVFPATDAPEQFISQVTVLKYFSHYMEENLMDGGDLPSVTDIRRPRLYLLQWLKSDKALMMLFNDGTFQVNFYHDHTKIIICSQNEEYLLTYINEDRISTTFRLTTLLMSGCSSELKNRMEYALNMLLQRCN

The examples below pair each entry with its known result.
CC[C@@H]1C(=O)N(C)c2cnc(Nc3cc(N4CCN(C)CC4)cc(F)c3OCCCO)nc2N1C(C)C ... > 10 µM
CC[C@@H]1C(=O)N(C)c2cnc(Nc3cc(N4CCC(NC(=O)OC(C)(C)C)CC4)ccc3OCCO)nc2N1C1CCCC1 ... > 10 µM
CC[C@@H]1C(=O)N(C)c2cnc(Nc3cc(N4CCN(C)CC4)cc(Cl)c3OCCCO)nc2N1C1CCCC1 ... > 10 µM
CC[C@@H]1C(=O)N(C)c2cnc(Nc3cc(N4CCN(C)CC4)cc(F)c3OC)nc2N1C(C)C ... 6.6 µM

Kindly give each listed record's IC50.
1. CC[C@@H]1C(=O)N(C)c2cnc(Nc3cc(N4CCN(CC)CC4)cc(F)c3OC)nc2N1C1CCCC1
2. CC[C@@H]1C(=O)N(C)c2cnc(Nc3cc(N4CCN(C)CC4)cc(F)c3OCCO)nc2N1C1CCCC1
3. CC[C@@H]1C(=O)N(C)c2cnc(Nc3cc(N4CCN(CC)CC4)cc(F)c3OCCO)nc2N1C1CCCC1

// result
0.61 µM
> 10 µM
> 10 µM

* * *

# Assay details: AUC (0 to infinity) in C57BL/6 mouse at 10 mg/kg, po measured for 0.5 to 12 htr by LC-MS/MS analysis
# Type: ADME, organism-based
# Applied conditions: in vivo, time 0.5-12 hrs
Property label: AUC(0-inf) (ng·h/mL)
One number for each entry, in ng·h/mL.

CC[C@@H]1C(=O)N(C)c2cnc(Nc3ccc(C(=O)NC4CCN(C)CC4)cc3OC)nc2N1C1CCCC1 ... 96
CC[C@@H]1C(=O)N(C)c2cnc(Nc3cc(N4CCN(C)CC4)cc(Cl)c3OCCCO)nc2N1C1CCCC1 ... 825

// query Specify AUC(0-inf) for CC[C@@H]1C(=O)N(C)c2cnc(Nc3cc(N4CCN(C)CC4)ccc3OCCCO)nc2N1C1CCCC1 and stop.
// result 452

* * *

# Assayed target: Cytochrome P450 3A4 (Homo sapiens, UniProt P08684)
# Sequence (P08684 whole entry): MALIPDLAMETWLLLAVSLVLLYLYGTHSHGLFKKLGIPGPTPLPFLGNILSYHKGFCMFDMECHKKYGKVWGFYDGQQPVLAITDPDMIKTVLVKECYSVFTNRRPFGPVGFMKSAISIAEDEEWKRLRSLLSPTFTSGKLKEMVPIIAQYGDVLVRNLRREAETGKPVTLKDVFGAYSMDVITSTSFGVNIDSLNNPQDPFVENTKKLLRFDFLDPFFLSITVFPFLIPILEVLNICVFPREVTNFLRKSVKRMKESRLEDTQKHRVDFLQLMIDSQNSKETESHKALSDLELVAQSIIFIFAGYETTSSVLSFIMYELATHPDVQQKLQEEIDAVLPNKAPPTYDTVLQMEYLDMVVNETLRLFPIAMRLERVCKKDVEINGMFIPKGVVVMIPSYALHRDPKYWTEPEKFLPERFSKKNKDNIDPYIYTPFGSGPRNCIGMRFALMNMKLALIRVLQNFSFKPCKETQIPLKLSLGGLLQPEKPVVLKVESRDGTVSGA
# Assay details: Inhibition of CYP3A4 in human liver microsomes using midazolam as substrate preincubated with compound followed by substrate addition measured after 5 mins in presence of NADPH by LC-MS/MS analysis
# Assay type: ADME, Microsome
pIC50: −log10 of the molar value.
Property label: pIC50

// query For Cytochrome P450 3A4 (Homo sapiens, UniProt P08684), give pIC50 of the listed compound: CC[C@@H]1C(=O)N(C)c2cnc(Nc3cc(N4CCN(C)CC4)cc(Cl)c3OCCCO)nc2N1C1CCCC1
// result < 5.00

* * *

# Assayed target: Serine/threonine-protein kinase PLK1 (Homo sapiens)
# Sequence (P53350 whole entry): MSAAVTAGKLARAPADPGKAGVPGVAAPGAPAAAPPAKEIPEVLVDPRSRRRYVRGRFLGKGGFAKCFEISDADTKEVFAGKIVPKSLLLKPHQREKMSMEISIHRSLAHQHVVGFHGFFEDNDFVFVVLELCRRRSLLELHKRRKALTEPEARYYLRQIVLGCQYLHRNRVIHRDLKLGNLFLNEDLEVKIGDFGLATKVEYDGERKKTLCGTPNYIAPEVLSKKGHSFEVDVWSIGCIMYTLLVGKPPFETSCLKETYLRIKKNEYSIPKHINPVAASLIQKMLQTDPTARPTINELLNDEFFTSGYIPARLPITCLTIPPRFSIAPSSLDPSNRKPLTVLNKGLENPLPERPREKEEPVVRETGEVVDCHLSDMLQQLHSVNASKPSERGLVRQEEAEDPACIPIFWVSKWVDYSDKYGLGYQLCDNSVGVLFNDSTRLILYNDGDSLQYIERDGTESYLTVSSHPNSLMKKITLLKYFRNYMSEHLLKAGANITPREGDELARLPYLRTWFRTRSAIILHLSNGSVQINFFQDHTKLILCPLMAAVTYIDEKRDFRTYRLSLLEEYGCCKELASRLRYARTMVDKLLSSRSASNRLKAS
Labels assigned by IC50 range: Low: < 20 nM; Mid: ≥ 20 nM and < 30 nM; High: ≥ 30 nM

Recorded results for 2 compounds are shown here.
CC[C@@H]1C(=O)N(C)c2cnc(Nc3cc(N4CCN(C)CC4)ccc3OCCO)nc2N1C1CCCC1 ... Mid
CC[C@@H]1C(=O)N(C)c2cnc(Nc3cc(N4CCN(C)CC4)cc(F)c3OC)nc2N1C(C)C ... Low

// query Could you place CC[C@@H]1C(=O)N(C)c2cnc(Nc3cc(N4CCN(C)CC4)cc(F)c3OCCCO)nc2N1C1CCNC1 (some centres undefined) in its proper category? Many thanks.
// result High

* * *

# Test system: A549
# Assay details: cells
# Applied conditions: Homo sapiens
Param label: returns T when IC50 < 200 nM, returns F otherwise, including exact equality.

CN1CCN(c2ccc(OC(F)(F)F)c(Nc3ncc4c(n3)-c3c(c(C(N)=O)nn3CCO)CC4)c2)CC1 ... T
CC[C@@H]1C(=O)N(C)c2cnc(Nc3cc(N4CCN(C)CC4)cc(F)c3OCCO)nc2N1C1CCCC1 ... T
CC[C@@H]1C(=O)N(C)c2cnc(Nc3cc(N4CCN(C)CC4)cc(F)c3OCCCO)nc2N1C1CCCC1 ... T
CC[C@@H]1C(=O)N(C)c2cnc(Nc3cc(N4CCN(C)CC4)cc(F)c3OCCCO)nc2N1C(C)C ... F
CC[C@@H]1C(=O)N(C)c2cnc(Nc3cc(N4CCN(C)CC4)ccc3OCCCO)nc2N1C1CCCC1 ... T
CC[C@@H]1C(=O)N(C)c2cnc(Nc3cc(N4CCN(C)CC4)cc(Cl)c3OCCCO)nc2N1C1CCCC1 ... T

Turning to the following compound.
// query I'd appreciate it if you could check whether CC[C@@H]1C(=O)N(C)c2cnc(Nc3cc(N4CCN(C)CC4)cc(F)c3OC[C@H](C)O)nc2N1C1CCCC1 has IC50 smaller than 200 nM.
// result F

* * *

# Assay details: Metabolic stability in dog liver microsomes assessed as intrinsic clearance preincubated for 5 mins followed by NADPH addition by LC-MS/MS analysis
# Assay type: ADME, Canis lupus familiaris, Microsome
# Applied conditions: read-out: CLH
Field: CLint scaled. Provide a value for each of the compounds that follow.

CC[C@@H]1C(=O)N(C)c2cnc(Nc3ccc(C(=O)NC4CCN(C)CC4)cc3OC)nc2N1C1CCCC1 ... 126 mL/min/kg

Continue with the next compound.
// query Quote CLint scaled reported for CC[C@@H]1C(=O)N(C)c2cnc(Nc3cc(N4CCN(C)CC4)cc(Cl)c3OCCCO)nc2N1C1CCCC1 please.
// result 474 mL/min/kg

* * *

# Assay details: Cytotoxicity against HEK293T cells assessed as inhibition of cell viability by CCK8 assay
# Format: toxicity, cell-based, HEK-293T
# Applied conditions: human
Property label: IC50 (µM)
Answers are plain numbers, in µM.

// query Specify measured IC50 for CC[C@@H]1C(=O)N(C)c2cnc(Nc3cc(N4CCN(C)CC4)ccc3OCCCO)nc2N1C1CCCC1 .
// result 38.2

* * *

Would you kindly list pIC50 for each of these molecules?
# System: SW-620
# Assay details: cells
# Applied conditions: Homo sapiens
Numbers only, as −log10 of the molar value.

CC[C@@H]1C(=O)N(C)c2cnc(Nc3cc(N4CCN(C)CC4)cc(F)c3OC[C@H](C)O)nc2N1C1CCCC1 ... 7.74
CC[C@@H]1C(=O)N(C)c2cnc(Nc3cc(N4CCN(C)CC4)cc(F)c3OCCCO)nc2N1C1CCCC1 ... 7.74
CC[C@@H]1C(=O)N(C)c2cnc(Nc3cc(N4CCN(C)CC4)ccc3OCCCO)nc2N1C1CCCC1 ... 6.66
CC[C@@H]1C(=O)N(C)c2cnc(Nc3cc(N4CCN(C)CC4)cc(F)c3OCCCO)nc2N1C(C)C ... 7.08
CN1CCN(c2ccc(OC(F)(F)F)c(Nc3ncc4c(n3)-c3c(c(C(N)=O)nn3CCO)CC4)c2)CC1 ... 7.74

Give one value of pIC50 per listed molecule.
1. CC[C@@H]1C(=O)N(C)c2cnc(Nc3cc(N4CCN(C)CC4)cc(Cl)c3OCCCO)nc2N1C1CCCC1
2. CC[C@@H]1C(=O)N(C)c2cnc(Nc3cc(N4CCN(C)CC4)cc(F)c3OCCO)nc2N1C1CCCC1

// result
1. 8.09
2. 8.17
